# experimental_details: In vivo microdialysis and plasma pharmacokinetics (BBB penetration)
# Parameters: species or system Sprague-Dawley rats
# reported_conditions: male, Sprague-Dawley, iv; rat, 10 mg/kg i.v., plasma; read-out: Tmax Plasma (converted)
Below: a set of entries, each annotated with reported Tmax.

# chemical_structure, Tmax
rows = [
    ("NC(=O)[C@H](CO[C@@H]1O[C@H](CO)[C@@H](O)[C@H](O)[C@H]1O)NC(=O)[C@@H]1CCC(=O)NCCCC[C@@H](NC(=O)[C@@H](N)Cc2ccc(O)cc2)C(=O)N[C@@H](Cc2c[nH]c3ccccc23)C(=O)N[C@@H](Cc2ccccc2)C(=O)N1", "1 min"),
    ("NC(=O)CNC(=O)[C@@H]1CCC(=O)NCCCC[C@@H](NC(=O)[C@@H](N)Cc2ccc(O)cc2)C(=O)N[C@@H](Cc2c[nH]c3ccccc23)C(=O)N[C@@H](Cc2ccccc2)C(=O)N1", "2 min"),
]

----------
# measurement_target: mu opioid receptor (MOR) (Homo sapiens)

# chemical_structure, measurement_target, Ki [nM]
data = [
    ("NC(=O)CNC(=O)[C@@H]1CCC(=O)NCCCC[C@@H](NC(=O)[C@@H](N)Cc2ccc(O)cc2)C(=O)N[C@@H](Cc2c[nH]c3ccccc23)C(=O)N[C@@H](Cc2ccccc2)C(=O)N1", "mu opioid receptor (MOR) (Homo sapiens)", 0.61),
]

----------
# measurement_target: KOR (Homo sapiens, UniProt P41145)
# Sequence (P41145 whole entry): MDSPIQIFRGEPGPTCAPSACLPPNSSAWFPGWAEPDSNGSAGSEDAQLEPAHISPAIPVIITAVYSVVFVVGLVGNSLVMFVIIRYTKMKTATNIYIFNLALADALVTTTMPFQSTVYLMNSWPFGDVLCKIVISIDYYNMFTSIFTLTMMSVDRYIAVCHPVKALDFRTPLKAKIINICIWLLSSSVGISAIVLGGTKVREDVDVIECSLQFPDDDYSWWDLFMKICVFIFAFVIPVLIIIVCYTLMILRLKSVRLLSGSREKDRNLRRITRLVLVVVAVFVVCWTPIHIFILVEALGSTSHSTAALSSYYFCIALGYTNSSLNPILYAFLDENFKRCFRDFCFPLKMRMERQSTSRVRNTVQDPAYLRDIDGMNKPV
pIC50: −log10 of the molar value.
parameter: pIC50

# chemical_structure, endpoint_value
rows = [
    ("NC(=O)CNC(=O)[C@@H]1CCC(=O)NCCCC[C@@H](NC(=O)[C@@H](N)Cc2ccc(O)cc2)C(=O)N[C@@H](Cc2c[nH]c3ccccc23)C(=O)N[C@@H](Cc2ccccc2)C(=O)N1", 5.64),
]

----------
# experimental_details: In vivo microdialysis and plasma pharmacokinetics (BBB penetration)
# Parameters: species or system Sprague-Dawley rats
# reported_conditions: male, Sprague-Dawley, iv; rat, 10 mg/kg i.v., brain dialysate; read-out: Tmax Brain (dialysate) (converted)

# molecule, Tmax [min]
records = [
    ("NC(=O)CNC(=O)[C@@H]1CCC(=O)NCCCC[C@@H](NC(=O)[C@@H](N)Cc2ccc(O)cc2)C(=O)N[C@@H](Cc2c[nH]c3ccccc23)C(=O)N[C@@H](Cc2ccccc2)C(=O)N1 [ZH853]", 28),
    ("NC(=O)[C@H](CO[C@@H]1O[C@H](CO)[C@@H](O)[C@H](O)[C@H]1O)NC(=O)[C@@H]1CCC(=O)NCCCC[C@@H](NC(=O)[C@@H](N)Cc2ccc(O)cc2)C(=O)N[C@@H](Cc2c[nH]c3ccccc23)C(=O)N[C@@H](Cc2ccccc2)C(=O)N1 [Analog A1]", 5),
]

----------
# measurement_target: MOR (Homo sapiens, UniProt P35372)
# Sequence (P35372 whole entry): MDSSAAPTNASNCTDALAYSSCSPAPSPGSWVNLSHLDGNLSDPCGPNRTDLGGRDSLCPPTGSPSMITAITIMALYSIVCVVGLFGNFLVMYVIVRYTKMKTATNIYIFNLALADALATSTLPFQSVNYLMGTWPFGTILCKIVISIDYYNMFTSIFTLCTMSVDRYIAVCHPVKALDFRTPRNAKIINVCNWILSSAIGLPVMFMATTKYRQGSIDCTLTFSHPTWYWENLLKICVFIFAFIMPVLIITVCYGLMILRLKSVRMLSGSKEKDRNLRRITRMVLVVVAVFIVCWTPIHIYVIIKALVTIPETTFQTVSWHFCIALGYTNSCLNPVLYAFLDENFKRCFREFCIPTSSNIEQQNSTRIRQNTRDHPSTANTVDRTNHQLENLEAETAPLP
# experimental_details: Gi signaling (inhibition of cAMP) in opioid-receptor-expressing HEK cells, MOR
# Protocol: Opioid-receptor-specific functional activity was assessed in cyclicAMP (cAMP) assays by PDSP.
parameter: IC50

# chemical_structure, endpoint_value
measured = [
    ("NC(=O)CNC(=O)[C@@H]1CCC(=O)NCCCC[C@@H](NC(=O)[C@@H](N)Cc2ccc(O)cc2)C(=O)N[C@@H](Cc2c[nH]c3ccccc23)C(=O)N[C@@H](Cc2ccccc2)C(=O)N1", "0.07 nM"),
]

meta.source: paper PMC11472388
